Entries and their TGI
# System: HT29 colon
# Procedure Text: NCI tumour cell line growth inhibition, 48 h

> print(dat)
                                   molecule  value.type  measured.value
1  O=C1CCC[C@H]2O[C@@H](COC(=O)c3ccccc3)C[C@H]2O1         TGI        > 100 µM
2  C=C1C(=O)OC2C1CCC(C)C1(O)C=CC(=O)C21C (stereo unspecified)         TGI         > 10 µM
3  C/C(=C(/c1ccccc1)c1ccc(OCC(O)CNCCN2CCOCC2)cc1)c1ccccc1 (stereo unspecified)         TGI         4.86 µM
4  O=C(Cn1cc(Br)c(=O)[nH]c1=O)c1ccc(-c2ccccc2)cc1         TGI        > 100 µM
5          CN(Cc1ccc(F)cc1)c1ccc(CO)c(Cl)c1         TGI         67.1 µM

# ---- query molecule ----
In: Indicate the recorded TGI value for this molecule: `N=c1oc2ccccc2cc1-c1nc2ccccc2[nH]1`
Out: > 100 µM

* * *

# System: PC-3 prostate
# Procedure Text: NCI tumour cell line growth inhibition, 48 h; in the data active = GI50 below about 0.43 µM; inactive = the rest
Write down one outcome, taken from active, inactive

Examples from the recorded data:
> print(dat)
                                   molecule  answer.label
1  Nc1c(C(=O)c2cccc(C#CCN3CCCCC3)c2)cnn1-c1ccc(F)cc1      inactive
2       ClCc1cccc(Cn2cnc3c(Cl)nc(Cl)nc32)c1      inactive
3  CC(NC(=O)Cc1ccc(C(F)(F)P(=O)(OCc2ccc([N+](=O)[O-])o2)N(C)CCCCCl)cc1)c1ccc(OCC2CCCCC2)c(C(N)=O)c1 (centres undefined)      inactive
4  CC(=O)/C=C/c1ccc(Nc2c3ccccc3nc3occ(Cl)c23)cc1      inactive
5  COc1cccc2c1C(=O)c1c(O)c3c(c(O)c1C2=O)C[C@@](O)(C(=O)COC(=O)c1ccccc1)C[C@@H]3OC1CC(N)C(O)C(C)O1 (some centres undefined)        active

In: // param item: `FC(F)(F)c1ccc(-c2nn3ncccc3c2-c2ccnc(Nc3ccc4c(c3)OCCO4)n2)cc1` ; yields the recorded call
Out: inactive

* * *

# System: NCI-H460 lung
# Procedure Text: NCI tumour cell line growth inhibition, 48 h
Entries and their TGI

Illustrative cases are given below, each with its answer.
> print(dat)
                                   compound  measured.value
1       Nc1nc(N)c2cc(Sc3ccc4ccccc4c3)ccc2n1         2.26 µM
2       O=c1[nH]nc(Cc2ccccc2)n1/N=C/c1ccco1        > 100 µM
3  COC1(C2c3ccccc3CCN2C(=O)OC(C)(C)C)C(=O)C(c2ccccc2)=C1N(C)C (stereo unspecified)        > 100 µM

In: Indicate the recorded TGI value for this compound: `COc1cc2c(c3c1c(=O)c1ccccc1n3C)C=CC(C)(C)O2`
Out: > 100 µM

In: Indicate the recorded TGI value for this compound: `OC1=CN=COc2ccccc21`
Out: > 100 µM

In: Indicate the recorded TGI value for this compound: `Cn1cc(-c2cc(-c3cn(C)c4ccc(Cl)cc34)[nH]n2)c2cc(Cl)ccc21`
Out: 5.47 µM

In: Indicate the recorded TGI value for this compound: O=[N+]([O-])c1ccc(C2ON=C(c3ccccc3)N2C23CC4CC(CC(C4)C2)C3)cc1 (stereo unspecified)
Out: > 10 µM

In: Indicate the recorded TGI value for this compound: `C[C@@H](C[C@H]1OC(C)(C)O[C@@H]1C(C)(C)O)[C@H]1CC=C2[C@]3(C)[C@H](O)C[C@H]4C(C)(C)[C@H](O)CC[C@]4(C)[C@H]3CC[C@]21C`
Out: 14.2 µM

The reported measurements were obtained from PubChem BioAssay (NCI).
